Data origin, for the record: paper PMC7504814

# Measurement Target: sEH (Homo sapiens)
# Construct: purchased Cayman Chemical Company 10011669
# Sequence (P34913 1-555): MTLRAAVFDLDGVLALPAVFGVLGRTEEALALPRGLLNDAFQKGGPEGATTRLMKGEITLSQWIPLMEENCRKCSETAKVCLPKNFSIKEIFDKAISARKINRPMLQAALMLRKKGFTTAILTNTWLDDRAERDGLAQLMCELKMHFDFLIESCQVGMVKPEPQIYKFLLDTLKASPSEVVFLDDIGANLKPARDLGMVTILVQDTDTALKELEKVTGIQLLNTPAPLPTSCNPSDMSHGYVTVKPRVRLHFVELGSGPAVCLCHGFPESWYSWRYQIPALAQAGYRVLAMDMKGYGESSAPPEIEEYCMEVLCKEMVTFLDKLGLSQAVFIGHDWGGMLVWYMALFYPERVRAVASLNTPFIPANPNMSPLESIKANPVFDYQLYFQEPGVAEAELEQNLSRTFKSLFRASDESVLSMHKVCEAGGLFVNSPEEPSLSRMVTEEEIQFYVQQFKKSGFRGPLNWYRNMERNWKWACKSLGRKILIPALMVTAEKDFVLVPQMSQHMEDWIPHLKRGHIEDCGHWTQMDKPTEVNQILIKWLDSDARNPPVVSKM
# Method: sEH inhibition assay with PHOME fluorescent substrate
# Type: biochemical
Observed Property: IC50

O=c1ccc2cc(O)c(O)cc2o1; 6.9 µM
